# pEC50 listing for each entry below
Tested on: HCT116 cells
Assay: Proliferation assay
Assay type: cell-based
Conditions: Homo sapiens, HCT-116, 96 h, read-out: Cell EC50 HCT 116
pEC50: −log10 of the molar value.
Readout Name: pEC50

* CCN(CCCOc1ccc2c(Nc3cc(CC(=O)Nc4cccc(F)c4)n[nH]3)ncnc2c1)CCOP(=O)(O)O | 7.76
* O=C(O)c1ccc(Nc2ncc3c(n2)-c2ccc(Cl)cc2C(c2c(F)cccc2F)=NC3)cc1 | 7.30
* Cc1cc(Nc2cc(N3CCN(C)CC3)nc(Sc3ccc(NC(=O)C4CC4)cc3)n2)[nH]n1 | 7.80

* * *

Here the recorded pEC50 is given for each entry.
Tested on: HT29 cells
Test: Proliferation assay
Assay type: cell-based
Conditions: Homo sapiens, HT-29, 96 h, read-out: Cell EC50 HT29
pEC50: −log10 of the molar value.
Readout Name: pEC50

* Cc1cc(Nc2cc(N3CCN(C)CC3)nc(Sc3ccc(NC(=O)C4CC4)cc3)n2)[nH]n1 [Compound 32, VX680] | 6.93
* CCN(CCCOc1ccc2c(Nc3cc(CC(=O)Nc4cccc(F)c4)n[nH]3)ncnc2c1)CCOP(=O)(O)O [Compound 33, AZD1152] | 6.62
* O=C(O)c1ccc(Nc2ncc3c(n2)-c2ccc(Cl)cc2C(c2c(F)cccc2F)=NC3)cc1 [Compound 34, MLN8054] | 6.16
